The compounds listed here are annotated with their EC50.
molecular target: CFTR in F508del/MF-HBE cells (Homo sapiens, UniProt P13569, DEL508-508); construct: human bronchial epithelial (HBE) cells derived from CF subjects heterozygous for F508del and a minimal function CFTR mutation; endogenous in cells; experiment: Ussing chamber assay of CFTR-mediated short-circuit currents (identification of potentiator compounds); conditions: potentiator incubated 18-24 hours at 37° C. in combination with 10 μM corrector, in the presence of 20% human serum, CFTR-mediated ISC
Sequence (P13569 with tags, fused parts or gaps DEL508-508): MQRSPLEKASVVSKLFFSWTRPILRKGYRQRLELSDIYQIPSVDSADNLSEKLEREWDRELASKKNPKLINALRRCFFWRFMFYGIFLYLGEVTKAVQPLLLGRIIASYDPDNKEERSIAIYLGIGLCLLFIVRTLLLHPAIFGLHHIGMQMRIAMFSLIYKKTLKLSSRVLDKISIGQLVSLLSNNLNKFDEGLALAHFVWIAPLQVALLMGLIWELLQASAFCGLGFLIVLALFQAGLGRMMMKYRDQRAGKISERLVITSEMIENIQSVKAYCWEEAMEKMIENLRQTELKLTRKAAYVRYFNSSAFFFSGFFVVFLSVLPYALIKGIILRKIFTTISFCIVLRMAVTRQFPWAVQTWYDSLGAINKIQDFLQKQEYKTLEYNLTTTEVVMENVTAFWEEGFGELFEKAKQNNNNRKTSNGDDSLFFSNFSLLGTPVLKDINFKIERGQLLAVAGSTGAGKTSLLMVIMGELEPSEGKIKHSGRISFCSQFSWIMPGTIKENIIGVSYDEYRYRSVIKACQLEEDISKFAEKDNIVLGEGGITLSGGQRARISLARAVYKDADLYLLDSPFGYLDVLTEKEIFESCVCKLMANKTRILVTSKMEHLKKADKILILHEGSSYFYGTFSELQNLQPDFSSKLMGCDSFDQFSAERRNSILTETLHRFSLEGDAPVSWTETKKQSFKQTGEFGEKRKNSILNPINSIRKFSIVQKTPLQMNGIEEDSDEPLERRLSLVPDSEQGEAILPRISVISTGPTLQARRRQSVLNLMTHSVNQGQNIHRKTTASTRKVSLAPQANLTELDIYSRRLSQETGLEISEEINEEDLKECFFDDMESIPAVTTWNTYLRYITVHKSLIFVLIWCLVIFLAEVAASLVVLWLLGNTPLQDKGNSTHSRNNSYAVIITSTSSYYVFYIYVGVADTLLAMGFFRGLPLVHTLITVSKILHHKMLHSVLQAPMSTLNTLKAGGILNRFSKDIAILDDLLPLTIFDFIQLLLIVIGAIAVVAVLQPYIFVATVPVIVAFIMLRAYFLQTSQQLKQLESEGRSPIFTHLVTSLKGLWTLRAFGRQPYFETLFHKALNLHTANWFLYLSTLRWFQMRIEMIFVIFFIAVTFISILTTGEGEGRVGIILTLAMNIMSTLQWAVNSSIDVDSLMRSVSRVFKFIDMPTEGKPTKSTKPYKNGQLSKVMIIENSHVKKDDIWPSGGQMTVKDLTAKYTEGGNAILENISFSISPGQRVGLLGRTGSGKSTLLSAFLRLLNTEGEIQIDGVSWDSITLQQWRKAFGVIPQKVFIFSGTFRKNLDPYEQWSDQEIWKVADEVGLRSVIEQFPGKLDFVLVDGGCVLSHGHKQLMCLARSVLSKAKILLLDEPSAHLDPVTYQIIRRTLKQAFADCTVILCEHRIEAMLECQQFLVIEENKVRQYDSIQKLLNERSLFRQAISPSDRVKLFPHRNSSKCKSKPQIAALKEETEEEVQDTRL

The following compounds have reported results that may help.
>>> print(df.to_string())
                                   compound  reported_endpoint  result_value
0  Nc1cc(C(F)(F)F)c2nc1-c1nnc(o1)[C@@](O)(C(F)(F)F)CCCCCN(CC1CCCCO1)C2=O (mixture of isomers) [Compound 130]               EC50      < 500 nM
1  Nc1cc(C(F)(F)F)c2nc1-c1nnc(o1)C(O)(C(F)(F)F)CCCC(=O)CCC2=O (single isomer, unassigned) [Compound 37]               EC50     > 1000 nM

Give a short answer stating reported EC50 for Nc1cc(C(F)(F)F)c2nc1-c1nnc(o1)C(O)(C(F)(F)F)CCCCCCC2O (single isomer, unassigned) [Compound 10] . < 500 nM

Give EC50 for Nc1cc(C(F)(F)F)c2nc1-c1nnc(o1)C(O)(C(F)(F)F)CCCCN(Cc1ccc(OC(F)(F)F)cc1)C2=O (single isomer, unassigned) [Compound 235] < 500 nM

Given the compound CC1CCCCC[C@](O)(C(F)(F)F)C2=NN=C(O2)c2nc(c(C(F)(F)F)cc2N)C1 (single isomer, unassigned) [Compound 55] , write its reported EC50. < 500 nM

Name the recorded EC50 of the compound listed here: Nc1cc(C(F)(F)F)c2nc1-c1nnc(o1)C(O)(C(F)(F)F)CCCCN(C1CC(F)(F)C1)C2=O (single isomer, unassigned) [Compound 199] > 1000 nM

---

# EC50 per record follows
biological target: CFTR in F508del/MF-HBE cells (Homo sapiens, UniProt P13569, DEL508-508); construct: human bronchial epithelial (HBE) cells derived from CF subjects heterozygous for F508del and a minimal function CFTR mutation; endogenous in cells; assay: Ussing chamber assay of CFTR-mediated short-circuit currents (identification of potentiator compounds); conditions: potentiator incubated 18-24 hours at 37° C. in combination with 10 μM corrector, in the presence of 20% human serum, CFTR-mediated ISC

Here is how some compounds turned out for EC50.
>>> print(df.to_string())
                                   compound  result_value
0  CC(C)(C)[C@H]1CC[C@H](N2CCCCC[C@](O)(C(F)(F)F)C3=NN=C(O3)c3nc(c(C(F)(F)F)cc3N)C2=O)CC1 [Compound 97]      < 500 nM
1  CN1CCCCCC(O)(C(F)(F)F)C2=NN=C(O2)c2nc(c(C(F)(F)F)cc2N)C1=O (single isomer, unassigned) [Compound 73]     > 1000 nM
2  Cn1cc(CN2CCCCC[C@](O)(C(F)(F)F)C3=NN=C(O3)c3nc(c(C(F)(F)F)cc3N)C2=O)cn1 [Compound 118]     > 1000 nM
3  Cn1cc2c(n1)-c1nc(c(N)cc1C(F)(F)F)-c1nnc(o1)C(O)(C(F)(F)F)CCCCC2 (stereo not shown) [Compound 24]     > 1000 nM

Please report the measured EC50 for Nc1cc(C(F)(F)F)c2nc1-c1nnc(o1)[C@@](O)(C(F)(F)F)CCCCCN(CC1CCOCC1)C2=O [Compound 132] < 500 nM

For the compound Nc1cc(C(F)(F)F)c2nc1-c1nnc(o1)[C@@](O)(C(F)(F)F)CCCCCN(Cc1cc(F)cc(C3CC3)c1)C2=O [Compound 247] , report EC50. < 500 nM

Report EC50 for Nc1cc(C(F)(F)F)c2nc1-c1nnc(o1)[C@@](O)(C(F)(F)F)CCCCCN(Cc1cccc(C3CC(F)(F)C3)c1)C2=O [Compound 224] < 500 nM

---

molecular target: CFTR in F508del/MF-HBE cells (Homo sapiens, UniProt P13569, DEL508-508); construct: human bronchial epithelial (HBE) cells derived from CF subjects heterozygous for F508del and a minimal function CFTR mutation; endogenous in cells; experiment: Ussing chamber assay of CFTR-mediated short-circuit currents (identification of potentiator compounds); details: potentiator incubated 18-24 hours at 37° C. in combination with 10 μM corrector, in the presence of 20% human serum, CFTR-mediated ISC
pEC50: −log10 of the molar value.
pEC50 for assorted compounds

In [3]: df
Out[3]:
                                   compound                        measurement_target  result_value
0  Nc1cc(C(F)(F)F)c2nc1-c1nnc(o1)[C@@](O)(C(F)(F)F)CCCCCN(C1CCC(F)(F)CC1)C2=O  CFTR in F508del/MF-HBE cells (Homo sapiens, UniProt P13569, DEL508-508)        > 6.30

Provide only the value of recorded pEC50 for Nc1cc(C(F)(F)F)c2nc1-c1nnc(o1)[C@@](O)(C(F)(F)F)CCCCCN(Cc1cn[nH]c1)C2=O < 6.00

Return reported pEC50. Input compound: Nc1cc(C(F)(F)F)c2nc1-c1nnc(o1)C(O)(C(F)(F)F)c1cc(ccc1F)CCCN(C1CC(F)(F)C1)C2=O (single isomer, unassigned) [Compound 203] > 6.30

# return recorded pEC50 for entry Nc1cc(C(F)(F)F)c2nc1-c1nnc(o1)[C@@](O)(C(F)(F)F)CCCCCN(Cc1ccc(F)cc1)C2=O > 6.30

Write down pEC50 measured for item COC12CCC(N3CCCCC[C@](O)(C(F)(F)F)c4nnc(o4)-c4nc(c(C(F)(F)F)cc4N)C3=O)(CC1)C2 > 6.30

Indicate its recorded pEC50; the compound in question is N#C[C@H]1CC[C@H](N2CCCCC[C@](O)(C(F)(F)F)C3=NN=C(O3)c3nc(c(C(F)(F)F)cc3N)C2=O)CC1 > 6.30

Could you please provide reported pEC50 for CC(C)(C)ON=C1CCCCCC[C@](O)(C(F)(F)F)C2=NN=C(O2)c2nc1c(C(F)(F)F)cc2N (single isomer, unassigned) [Compound 29] ? Thanks! > 6.30

Please give measured pEC50 of the following entry: CC[C@H](C)N1CCCCC[C@](O)(C(F)(F)F)C2=NN=C(O2)c2nc(c(C(F)(F)F)cc2N)C1=O > 6.30

Tell me measured pEC50 for Cc1ccccc1CN1CCCCC[C@](O)(C(F)(F)F)C2=NN=C(O2)c2nc(c(C(F)(F)F)cc2N)C1=O please. > 6.30

Retrieve pEC50 measured for Cc1cccnc1CN1CCCCC[C@](O)(C(F)(F)F)C2=NN=C(O2)c2nc(c(C(F)(F)F)cc2N)C1=O and print it. > 6.30

Provide measured pEC50 value, entry: Nc1cc(C(F)(F)F)c2nc1-c1nnc(o1)[C@@](O)(C(F)(F)F)CCCCCN(C1CCS(=O)(=O)CC1)C2=O < 6.00

Please list pEC50 recorded for the compound Nc1cc(C(F)(F)F)c2nc1-c1nnc(o1)[C@@](O)(C(F)(F)F)CCCCCN([C@H]1CC[C@H](C(F)(F)F)CC1)C2=O > 6.30

Item N#Cc1cccc(CN2CCCCC[C@](O)(C(F)(F)F)C3=NN=C(O3)c3nc(c(C(F)(F)F)cc3N)C2=O)c1 : provide pEC50 > 6.30

---

biological target: CFTR in F508del/MF-HBE cells (Homo sapiens, UniProt P13569, DEL508-508); construct: human bronchial epithelial (HBE) cells derived from CF subjects heterozygous for F508del and a minimal function CFTR mutation; endogenous in cells; test: Ussing chamber assay of CFTR-mediated short-circuit currents (identification of potentiator compounds); conditions: potentiator incubated 18-24 hours at 37° C. in combination with 10 μM corrector, in the presence of 20% human serum, CFTR-mediated ISC
reported endpoint: EC50

In [3]: df
Out[3]:
                                   molecule  reported_endpoint  result_value
0  Nc1cc(C(F)(F)F)c2nc1-c1nnc(o1)[C@@](O)(C(F)(F)F)CCCCCN(Cc1ccc(N3CCCCC3)nc1)C2=O               EC50      < 500 nM
1  Cc1cc(OC(F)(F)F)ccc1CN1CCCCC[C@](O)(C(F)(F)F)C2=NN=C(O2)c2nc(c(C(F)(F)F)cc2N)C1=O               EC50      < 500 nM

Give a short answer stating reported EC50 for Nc1cc(C(F)(F)F)c2nc1-c1nnc(o1)C(O)(C(F)(F)F)CCC(=O)CCCC2=O (single isomer, unassigned) [Compound 35] . > 1000 nM
